Target: T1, cynomolgus EpCAM protein (cynomolgus, UniProt Q1WER1 27-265 (rhesus entry), limits assumed, biotinylated in the Octet assays (site not stated))
T1 construct: also called cy EpCAM; biotinylated cynomolgus EpCAM protein
T1 sequence: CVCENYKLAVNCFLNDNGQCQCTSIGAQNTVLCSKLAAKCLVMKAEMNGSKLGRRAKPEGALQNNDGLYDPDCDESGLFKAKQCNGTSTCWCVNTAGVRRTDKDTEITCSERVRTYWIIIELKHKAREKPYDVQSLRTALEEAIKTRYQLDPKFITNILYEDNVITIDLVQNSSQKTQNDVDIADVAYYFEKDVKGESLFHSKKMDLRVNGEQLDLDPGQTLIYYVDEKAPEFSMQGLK
Test: colorimetric ELISA
Here the recorded Cynomolgus EpCAM/Control is given for each entry.

{"Binder": "EPL164 (VHH) VHH: QVQLQESGGGLVQAGGSLRLSCAASGFIFRAASMDWYRQSPGTQPELVATISSTGFTNYANSVKGRFTISRDNAKNTVYLQMNSLKPEDTAVYFCGATFLRSDGQHSIYGQGTQVTVSS", "Cynomolgus EpCAM/Control": 34}
{"Binder": "EPL34 (VHH) VHH: QVQLQESGGGSVQAGGSLRLSCAASGFTFSSYYMSWVRQAPGKGLEWVSGIHYTGDWTNYADSVKGRFTISRDNAKNELYLEMNNLKPEDTAVYYCARGSDKGQGTQVTVSS", "Cynomolgus EpCAM/Control": 36}
